# System: Pseudomonas aeruginosa
# method_description: Tested in vivo against Pseudomonas aeruginosa E-2 in mice after peroral dose of drug with 0.5% sodium carboxy methyl cellulose
# Type: functional
# assay_context: po
Known log10 of ED50 of a selection of compounds
Response schema: value (number) is log10 of ED50 in units of mg/kg.

Guide cases for log10 of ED50, answers given:
{"columns": ["compound", "log10 of ED50"],
 "data": [
  ["CC1COc2c(N3CCN(C)CC3)c(F)cc3c(=O)c(C(=O)O)cn1c23 (centres undefined)", 1.74],
  ["CC1CN(c2c(F)cc3c(=O)c(C(=O)O)cn(C4CC4)c3c2F)CCN1 (centres undefined)", 0.95],
  ["CC1CN(c2c(F)cc3c(=O)c(C(=O)O)cn(C4CC4)c3c2F)CC(C)N1 (centres undefined)", 1.07],
  ["O=C(O)c1cn(C2CC2)c2c(F)c(N3CCNCC3)c(F)cc2c1=O", 0.83]
]}

Alright, here's another compound for you.
// query I would be grateful if you could share the reported log10 of ED50 for CC1CN(c2c(F)cc3c(=O)c(C(=O)O)cn(C4CC4)c3c2F)CCN1O (centres undefined) .
// result 1.36

====

# System: Staphylococcus aureus
# method_description: Tested in vitro against Staphylococcus aureus FDA209P JC-1 by agar dilution method
# Type: functional
readout: MIC
Don't forget the unit after the number, please.

Solved entries (count: 3):
{"columns": ["molecule", "measurement_target", "readout", "value_measured"],
 "data": [
  ["O=C(O)c1cn(C2CC2)c2cc(N3CCNCC3)c(F)cc2c1=O", "Staphylococcus aureus", "MIC", "0.39 mg/L"],
  ["CC1CN(c2c(F)cc3c(=O)c(C(=O)O)cn(C4CC4)c3c2F)CC(C)N1O (centres undefined)", "Staphylococcus aureus", "MIC", "0.2 mg/L"],
  ["CC1COc2c(N3CCN(C)CC3)c(F)cc3c(=O)c(C(=O)O)cn1c23 (centres undefined)", "Staphylococcus aureus", "MIC", "0.39 mg/L"]
]}

// switching to the query molecule
// query Give its MIC value. Item: CC1CN(c2c(F)cc3c(=O)c(C(=O)O)cn(C4CC4)c3c2F)CC(C)N1 (centres undefined)
// result 0.39 mg/L

====

# System: Serratia marcescens
# method_description: Tested in vitro against Serratia marcescens IAM1184 by agar dilution method
# Type: functional
readout: MIC (µg/mL)
Give your result in µg/mL as a bare value.

{"columns": ["molecule", "value_measured"],
 "data": [
  ["CCn1cc(C(=O)O)c(=O)c2cc(F)c(N3CCNCC3)cc21", 0.78],
  ["O=C(O)c1cn(C2CC2)c2c(F)c(N3CCN(O)CC3)c(F)cc2c1=O", 0.78],
  ["CC1CN(c2c(F)cc3c(=O)c(C(=O)O)cn(C4CC4)c3c2F)CCN1 (centres undefined)", 0.39]
]}

Now, please, on to the next molecule.
// query Given the entry CC1CN(c2c(F)cc3c(=O)c(C(=O)O)cn(C4CC4)c3c2F)CCN1O (centres undefined) , what MIC was observed with Serratia marcescens?
// result 0.78

====

# System: Staphylococcus aureus
# method_description: Tested in vitro against Staphylococcus aureus FDA209P JC-1 by agar dilution method
# Type: functional
Overview of reported MIC across a group of molecules:

{"columns": ["molecule", "MIC"],
 "data": [
  ["O=C(O)c1cn(C2CC2)c2c(F)c(N3CCNCC3)c(F)cc2c1=O", "0.2 µg/mL"]
]}

// query Record request: MIC value, item CCn1cc(C(=O)O)c(=O)c2cc(F)c(N3CCNCC3)cc21
// result 0.39 µg/mL

// query Same for CC1CN(c2c(F)cc3c(=O)c(C(=O)O)cn(C4CC4)c3c2F)CCN1 (stereo not given)
// result 0.39 µg/mL

// query How about O=C(O)c1cn(C2CC2)c2c(F)c(N3CCN(O)CC3)c(F)cc2c1=O ?
// result 0.39 µg/mL

// query What about CC1CN(c2c(F)cc3c(=O)c(C(=O)O)cn(C4CC4)c3c2F)CCN1O (stereo not given) ?
// result 0.39 µg/mL
